# System: BT-549
# test.protocol: NCI tumour cell line growth inhibition, 48 h
Activity calls are given as the source filed them. Cut-off read from the data, not from the text of the source: active = GI50 up to about 1.1 µM and inactive = higher.
Pick from label 1 for active, label 0 for inactive when you respond.

Consider the following illustrative entries.
>  <compound>
CSc1nc(SC)c2ncn(C3CC(Oc4ccc(C)cc4)C(COc4ccc(C)cc4)O3)c2n1 (stereo not drawn)

>  <target.desc>
BT-549

>  <discrete.label>
label 0

$$$$
>  <compound>
Oc1cc(O)c2c(c1)OC(c1ccc(O)c(O)c1)C(OC1(c3cc(O)c(O)c(O)c3)Oc3cc(O)cc(O)c3C(O)C1O)C2 (stereo not drawn)

>  <target.desc>
BT-549

>  <discrete.label>
label 0

$$$$

Hello, I am checking results. What call was entered for CCOC(=O)C1=NN(c2ccc(C)cc2)C2(c3ccccc3)C=C(c3ccccc3)N(C)CCN12 (stereo not drawn) ? label 0

Another compound to check: "O=c1cc(N2CCN(c3cc(=O)n4ccccc4n3)CC2)oc2ccccc12" label 0

Queued: "COC(=O)c1cc(OCc2cc(OCc3ccc(Br)cc3)cc(OCc3ccc(Br)cc3)c2)cc(OCc2cc(OCc3ccc(Br)cc3)cc(OCc3ccc(Br)cc3)c2)c1" label 0

Thanks! And O=C(NCCCCCCNC(=O)n1cc(F)c(=O)[nH]c1=O)NCCCOCCOCCOCCOCCOCCOCCOCCOCCOCCOCCOCCOCCOCCOCCOCCOCCOCCOCCOCCOCCOCCCNC(=O)C(O)C(O)C(O)C(O)CO (stereo not drawn) ? label 0

How about this compound: O=C1CC(C(=O)O)Cc2c(Br)ccc(O)c21 (stereo not drawn) label 0

Now consider "COc1ccccc1N/C(SCc1ccccc1)=C(/C(Cl)=C(Cl)Cl)[N+](=O)[O-]" and answer again. label 0

Check "C#CC(=O)OCC#CCOC(=O)C#C" too. label 0

// repeat for "CCCCCCCCCCCC(=O)Oc1c(Cl)cc(Cl)c(OC(=O)C(=O)Oc2c(Cl)cc(Cl)c(OC(=O)CCCCCCCCCCC)c2Cl)c1Cl" and report label 0

What do you get for "C#C[C@]1(O)[C@@H](CO)O[C@@H](n2ccc(N)nc2=O)[C@@H]1O" ? label 1
